System: UniProtKB P35463 | Read-out: IC50
Sequence (P35463 whole entry): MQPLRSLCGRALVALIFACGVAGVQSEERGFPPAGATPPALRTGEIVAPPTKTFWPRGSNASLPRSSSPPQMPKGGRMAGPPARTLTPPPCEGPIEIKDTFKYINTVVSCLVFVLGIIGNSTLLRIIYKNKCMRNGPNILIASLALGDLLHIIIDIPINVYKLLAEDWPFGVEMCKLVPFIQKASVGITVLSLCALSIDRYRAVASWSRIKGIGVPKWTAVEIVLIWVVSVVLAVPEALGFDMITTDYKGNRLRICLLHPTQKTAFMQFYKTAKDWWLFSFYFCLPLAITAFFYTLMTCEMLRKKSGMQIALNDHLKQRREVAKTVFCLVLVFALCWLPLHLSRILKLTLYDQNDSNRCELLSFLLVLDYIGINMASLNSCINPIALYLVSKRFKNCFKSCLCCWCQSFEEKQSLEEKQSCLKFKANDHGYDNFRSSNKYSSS

Please review the entries below; each comes with its answer.
compound | target.or.system | IC50
Cc1c(C(=O)O)nc([C@@H](Cc2c[nH]c3ccccc23)NC(=O)[C@H](CC(C)C)NC(=O)N2CCCCCC2)n1C | UniProtKB P35463 | > 100 µM
COC(=O)C1(NC(=O)N[C@@H](CC(C)C)C(=O)N[C@H](Cc2cn(C)c3ccccc23)c2nc(C(=O)O)c(C)o2)CCCCC1 | UniProtKB P35463 | > 90 µM
Cc1oc([C@@H](Cc2cn(C)c3ccccc23)NC(=O)[C@H](CC(C)C)NC(=O)NC2CCCC(C)C2)nc1C(=O)O (some centres undefined) | UniProtKB P35463 | > 100 µM

Query: State recorded IC50 with UniProtKB P35463, entry Cc1oc([C@@H](Cc2cn(C)c3ccccc23)NC(=O)[C@H](CC(C)C)NC(=O)NC2CCC(O)CC2)nc1C(=O)O (some centres undefined) , no comment.
Response: > 100 µM

----------
target.or.system: Endothelin-1 receptor (Rattus norvegicus)
Sequence (P26684 whole entry): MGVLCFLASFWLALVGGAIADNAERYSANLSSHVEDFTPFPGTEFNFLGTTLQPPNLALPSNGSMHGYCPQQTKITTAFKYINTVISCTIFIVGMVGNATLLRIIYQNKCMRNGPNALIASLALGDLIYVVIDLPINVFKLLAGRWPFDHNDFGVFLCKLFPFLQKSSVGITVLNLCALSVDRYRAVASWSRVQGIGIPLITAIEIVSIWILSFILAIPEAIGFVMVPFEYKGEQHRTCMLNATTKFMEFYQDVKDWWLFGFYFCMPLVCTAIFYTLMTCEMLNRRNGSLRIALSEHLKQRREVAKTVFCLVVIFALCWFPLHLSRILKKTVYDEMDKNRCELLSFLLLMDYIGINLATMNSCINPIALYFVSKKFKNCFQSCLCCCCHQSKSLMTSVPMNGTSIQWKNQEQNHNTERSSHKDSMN
test.method.notes: Inhibitory activity was evaluated against ET- A Binding to Endothelin A receptor in MMQ cell homogenates
measured.property: IC50 (nM)

a: CCn1cc(C[C@@H](NC(=O)[C@H](CC(C)C)NC(=O)NC2CCCCC2)c2nc(C(=O)O)c(C)[nH]2)c2ccccc21
b: Cc1oc([C@@H](Cc2cn(C)c3ccccc23)NC(=O)[C@H](CC(C)C)NC(=O)N2CCc3ccccc32)nc1C(=O)O
c: Cc1oc([C@@H](Cc2cn(C)c3ccccc23)NC(=O)[C@H](CC(C)C)NC(=O)NC2CCCc3ccccc32)nc1C(=O)O (some centres undefined)
Query: Order each entry by recorded IC50, climbing from the minimum. Output spec: labels arranged per the requested ranking.
Response: b, c, a
(b: 5.9 nM, c: 230 nM, a: 730 nM)
